Protocol summary: protein stability index of a GFP-peptide fusion (GPS, HEK-293T) (PSI 1-6); higher = more stable;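 note: 24-mer peptide tiles fused after GFP, lentivirally expressed, FACS-sorted into six equal bins by GFP/DsRed ratio, decoded by Illumina sequencing, PSI is the read-weighted mean bin number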
Condition: treatment: MLN4924 1 uM, 8 h; c terminus: a fixed tail appended
Short version: protein stability index at least 3 is T, less is F.

Solved cases below.
seq_string="FNCIRAAIAPFQSAGSPPELQGLP [NET1]" qualitative_label=F
seq_string="VINPMLNPIIYSFRNPDVQSAIWR [OR3A1]" qualitative_label=F
seq_string="NFQQPGFTSGTGHFTAMVWKNTKK [GLIPR2]" qualitative_label=T

Exercise: Please check the record RGPPHGWPKLCPCLRSGIGSSQAL [MYCL] and state if its protein stability index is at or above 3.
Key: F

Exercise: Please check the record LGAVAGLALGPILRLYKHNSQALL [MFSD9] and state if its protein stability index is at or above 3.
Key: F

----------
Protocol summary: protein stability index of a GFP-peptide fusion (GPS, HEK-293T) (PSI 1-6); higher = more stable
Condition: treatment: DMSO; c terminus: a fixed tail appended
Readout kind: protein stability index
Please reply with the value in numeric form only.

Here is how some sequences turned out for protein stability index.
seq_string="TIAAIDGLALGGGLELALACDIRV [AUH]" result_value=2.39
seq_string="MNSLVSWQLLLFLCATHFGEPLEK [KISS1]" result_value=3.18
seq_string="IEDLEVTCTWKLPTLAKFSPYLGQ [PRAME]" result_value=2.62

Exercise: Please supply the value of reported protein stability index for the item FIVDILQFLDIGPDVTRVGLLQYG [MATN2]
Key: 3.11

Exercise: Please supply the value of reported protein stability index for the item QVLSAKERHLVEIKQKLGMNLMNE [TPD52L1]
Key: 3.04

Exercise: Please supply the value of reported protein stability index for the item KKCGRENWTVAFAPDGSYFAWSQG [WSB1]
Key: 2.33

Exercise: Please supply the value of reported protein stability index for the item LIFSPCSDCEEEEEEEEEEGSGHS [WEE1]
Key: 4.88

Exercise: Please supply the value of reported protein stability index for the item KADIGAPSGFKHVSHVGWDPQNGF [WAS]
Key: 3.2

Exercise: Please supply the value of reported protein stability index for the item SISRGRHARTHPQTALLESSCENK [MATN2]
Key: 4.87

Exercise: Please supply the value of reported protein stability index for the item SLGKTNVKDDELDAMLKEASGPIN [MYL5]
Key: 5.14

Exercise: Please supply the value of reported protein stability index for the item KPLFCGNSEADQLGKIFDLIGLPP [CDK4]
Key: 2.62

Exercise: Please supply the value of reported protein stability index for the item VVRGGEVVHRSDEQQHYFNTPFQL [PPTC7]
Key: 3.26

Exercise: Please supply the value of reported protein stability index for the item KKWGINTYKCTKQLLSERFGRGSR [ARFIP2]
Key: 2.65

Exercise: Please supply the value of reported protein stability index for the item TPRGPDPALLEATGGAAGAGGAGR [KCTD13]
Key: 5.13

Exercise: Please supply the value of reported protein stability index for the item SSQDRMFETMAIEIEQLLARLTGV [GOSR1]
Key: 2.52

Exercise: Please supply the value of reported protein stability index for the item RDIQDENQLLVADVKRLGKQNARF [STX11]
Key: 4.21

Exercise: Please supply the value of reported protein stability index for the item KERAAGGGAGSSEDDAQSRRDEQD [GOLPH3]
Key: 5.65

Exercise: Please supply the value of reported protein stability index for the item CNFSIPEELEFQYRRVNELLLSIL [ZER1]
Key: 2.34

Exercise: Please supply the value of reported protein stability index for the item DQPVMAVKTGEDGSNLDDAKGLAE [FANCE]
Key: 5.44

Exercise: Please supply the value of reported protein stability index for the item SGEKPYKCSDCGKAFLTKTMLIVH [ZNF649]
Key: 3.52

Exercise: Please supply the value of reported protein stability index for the item QSNVLCSIFGICMVFSGLCPLLLG [PTGFR]
Key: 2.75
